Test system: Fer (mouse)
test.summary: phosphorylation enrichment, bacterial display (enrichment ratio); higher = better substrate or ligand; peptides without Tyr show the background
Think of 0.6 as a floor: if phosphorylation enrichment stands on it or above, it is Met; beneath it, Not met.

Below are worked cases with known answers.
seq.string: GIVKAYYVRAR [AIPL1_Y267]
assay.system: Fer (mouse)
assigned.category: Not met
--
seq.string: PQGVGYPPQQQ [EP300_Y2219]
assay.system: Fer (mouse);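 note: frequency after pTyr selection over input frequency; kinase dosed for 20-30% of maximal phosphorylation in three min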
assigned.category: Not met
--
seq.string: AVRYIYTIDGS [DCX_Y105_G100A]
assay.system: Fer (mouse);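 note: frequency after pTyr selection over input frequency; kinase dosed for 20-30% of maximal phosphorylation in three min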
assigned.category: Not met
--
seq.string: GIVEDYRPPVY [ACVRL1_Y421_F425V]
assay.system: Fer (mouse);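 note: frequency after pTyr selection over input frequency; kinase dosed for 20-30% of maximal phosphorylation in three min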
assigned.category: Not met
--
seq.string: IMVFVYCRVFQ [ADRB2_Y219_S220C]
assay.system: Fer (mouse);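 note: 11-residue human phosphosite peptides and single-mutation variants displayed on the E. coli surface, counted by deep sequencing, each peptide's frequency after selection divided by its frequency in the unselected input library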;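 note: frequency after pTyr selection over input frequency; kinase dosed for 20-30% of maximal phosphorylation in three min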
assigned.category: Not met

Could you verify whether the entry EMFNPCYGLFE [NEDD4L_Y679_Y679C] shows phosphorylation enrichment of no less than 0.6?
Met

Reported phosphorylation enrichment reaches at least 0.6 for FEEDSYSHVMA [FDPS_Y388_I391V_YF] ?
Met

Check this sequence for phosphorylation enrichment at or above 0.6: IFGEEYEEQPR [ZMYM2_Y1033_V1028I]
Met

# bool: phosphorylation enrichment of LNEQHYGGLTG [PGAM4_Y92_R90Q] >= 0.6
Met

Evaluate DVSVVYSEVKT [FCRL4_Y493] : phosphorylation enrichment at minimum 0.6?
Met

Check the entry VCRHNYGVVES [HLA-DRB1_Y112_Y107V] : does phosphorylation enrichment equal or exceed 0.6?
Not met
